Target: T1, TNFR1 (Homo sapiens, UniProt P19438)
T1 chain: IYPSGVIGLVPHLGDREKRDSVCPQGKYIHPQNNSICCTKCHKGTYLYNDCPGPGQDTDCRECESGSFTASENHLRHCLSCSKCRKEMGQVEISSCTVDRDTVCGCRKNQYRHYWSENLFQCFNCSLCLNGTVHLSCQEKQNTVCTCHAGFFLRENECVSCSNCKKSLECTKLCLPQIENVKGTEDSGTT
Assay: yeast display SC50
Param threshold (1 nM) applies to apparent Kd (screen); output 1 when value >= threshold, 0 when value < threshold.

BINDER	QUALITATIVE LABEL
Y70V (designed binder) SMEEEVEKAAKEYEKKKKEAIEKHLEKLKAKDKEAAERFLKELEEAAKEYAKDEAKTMSEEEAKRRAKKVKEKVLLSELSEEEQKEIKEAEEKLVRTILKYVEEAAK	1
K85R (designed binder) SMEEEVEKAAKEYEKKKKEAIEKHLEKLKAKDKEAAERFLKELEEAAKEYAKDEAKTMSEEEAKRRAKKYKEKVLLSELSEEEQREIKEAEEKLVRTILKYVEEAAK	0
K107W (designed binder) SMEEEVEKAAKEYEKKKKEAIEKHLEKLKAKDKEAAERFLKELEEAAKEYAKDEAKTMSEEEAKRRAKKYKEKVLLSELSEEEQKEIKEAEEKLVRTILKYVEEAAW	1
L94P (designed binder) SMEEEVEKAAKEYEKKKKEAIEKHLEKLKAKDKEAAERFLKELEEAAKEYAKDEAKTMSEEEAKRRAKKYKEKVLLSELSEEEQKEIKEAEEKPVRTILKYVEEAAK	1
E22K (designed binder) SMEEEVEKAAKEYEKKKKEAIKKHLEKLKAKDKEAAERFLKELEEAAKEYAKDEAKTMSEEEAKRRAKKYKEKVLLSELSEEEQKEIKEAEEKLVRTILKYVEEAAK	1
L75F (designed binder) SMEEEVEKAAKEYEKKKKEAIEKHLEKLKAKDKEAAERFLKELEEAAKEYAKDEAKTMSEEEAKRRAKKYKEKVFLSELSEEEQKEIKEAEEKLVRTILKYVEEAAK	0

[Q] Determine whether measured apparent Kd (screen) meets or exceeds 1 nM for A30F (designed binder) SMEEEVEKAAKEYEKKKKEAIEKHLEKLKFKDKEAAERFLKELEEAAKEYAKDEAKTMSEEEAKRRAKKYKEKVLLSELSEEEQKEIKEAEEKLVRTILKYVEEAAK
[A] 0

[Q] And L79A (designed binder) SMEEEVEKAAKEYEKKKKEAIEKHLEKLKAKDKEAAERFLKELEEAAKEYAKDEAKTMSEEEAKRRAKKYKEKVLLSEASEEEQKEIKEAEEKLVRTILKYVEEAAK ?
[A] 1

# credit: paper PMC12416549
